molecular target: C-C chemokine receptor type 2 (Homo sapiens, UniProt P41597); assay: Displacement of [3H]-CCR2-RA-(R) from human CCR2b expressed in human U2OS cell membranes pre-incubated for 0 hrs before radio ligand addition and measured after 20 mins by scintillation counting method; set-up: species or system Cell membrane; conditions: read-out: Ki
Sequence (P41597 whole entry): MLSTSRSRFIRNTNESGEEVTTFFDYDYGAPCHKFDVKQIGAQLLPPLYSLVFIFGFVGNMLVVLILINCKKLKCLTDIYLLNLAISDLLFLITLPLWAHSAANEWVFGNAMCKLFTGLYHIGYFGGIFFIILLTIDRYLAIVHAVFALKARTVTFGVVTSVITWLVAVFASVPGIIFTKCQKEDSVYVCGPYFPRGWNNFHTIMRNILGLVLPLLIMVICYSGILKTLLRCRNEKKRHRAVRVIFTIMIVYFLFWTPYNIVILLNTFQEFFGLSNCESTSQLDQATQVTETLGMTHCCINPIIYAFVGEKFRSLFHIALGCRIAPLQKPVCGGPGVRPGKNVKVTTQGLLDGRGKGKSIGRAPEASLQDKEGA
observation.type: pKi
Numbers only, as −log10 of the molar value.

Fill in: pKi on C-C chemokine receptor type 2 (Homo sapiens, UniProt P41597), entry `N#CSCCNC(=O)c1ccc(Oc2ccc(Cl)cc2NS(=O)(=O)c2ccc(Cl)c(C(F)(F)F)c2)cc1` 8.62

* * *

target: C-C chemokine receptor type 2 (Homo sapiens); assay: Antagonist activity at human CCR2 expressed in human U2OS cell membranes as inhibition of [35S]GTPgammaS binding pre-incubated for 30 mins before CCL2 stimulation and followed by further incubation for 90 mins by scintillation counting method; format: functional, Cell membrane
observation.type: pIC50
One number for each entry, as −log10 of the molar value.

Fill in reported pIC50 for this entry: `N#CSCCNC(=O)c1ccc(Oc2ccc(Cl)cc2NS(=O)(=O)c2ccc(Cl)c(C(F)(F)F)c2)cc1` 7.48
